test: Pharmacokinetic study in monkeys; type: in vivo, cynomolgus monkeys; settings: cynomolgus monkey, plasma; male cynomolgus monkeys, 5 mg/kg po; read-out: T½ (converted)
Attribute: half-life
Please state the figure in h; there is no need to write the unit.

CHEMICAL STRUCTURE	RECORDED RESULT
O=C(O)c1ccc2nc(CN3CCC(Oc4cccc(COc5ccc(Cl)cc5F)n4)CC3)n(C[C@@H]3CCO3)c2c1	4.01

So what does the record say about half-life for `N#Cc1ccc(OCc2cccc(OC3CCN(Cc4nc5ccc(C(=O)O)cc5n4C[C@@H]4CCO4)CC3)n2)c(F)c1` ? 5.4

----------
assay: Pharmacokinetic study in mice; type: in vivo, CD-1 mice; details: male CD-1 mice, 5 mg/kg po
PROPERTY LABEL: F (%)
Please state the figure in %; there is no need to write the unit.

So what does the record say about F for N#Cc1ccc(OCc2cccc(OC3CCN(Cc4nc5c(F)cc(C(=O)O)cc5n4C[C@@H]4CCO4)CC3)n2)c(F)c1 [Compound 56] ? 54.4

So what does the record say about F for O=C(O)c1cc(F)c2nc(CN3CCC(Oc4cccc(COc5ccc(Cl)cc5F)n4)CC3)n(C[C@@H]3CCO3)c2c1 [Compound C23] ? 45.1

----------
Attribute: clearance
Test: Pharmacokinetic study in monkeys
Assay type: in vivo, cynomolgus monkeys
Conditions: cynomolgus monkey, plasma; male cynomolgus monkeys, 1 mg/kg iv
Description: The pharmacokinetic properties of compounds of the present invention were evaluated in monkey pharmacokinetic experiments with 3 male Non-naive cynomolgus monkeys per group. Compounds were dissolved in 10% solutol/90% saline. […] For plasma sample analysis, the test compounds and internal standards (Labetalol & tolbutamide & Verapamil & dexamethasone & glyburide & Celecoxib) were extracted from monkey plasma by protein precipitation method with acetonitrile, and the extracts were analyzed by LC/MS/MS. […]
Please state the figure in mL/min/kg; there is no need to write the unit.

CHEMICAL STRUCTURE	RECORDED RESULT
O=C(O)c1ccc2nc(CN3CCC(Oc4cccc(COc5ccc(Cl)cc5F)n4)CC3)n(C[C@@H]3CCO3)c2c1	7.26

Here's the next entry for you.
So what does the record say about clearance for `N#Cc1ccc(OCc2cccc(OC3CCN(Cc4nc5ccc(C(=O)O)cc5n4C[C@@H]4CCO4)CC3)n2)c(F)c1` ? 12

----------
assay: Pharmacokinetic study in monkeys; assay type: in vivo, cynomolgus monkeys; settings: cynomolgus monkey, plasma; male cynomolgus monkeys, 1 mg/kg iv; read-out: T½ (converted)
PROPERTY LABEL: half-life (h)
Please state the figure in h; there is no need to write the unit.

MOLECULE	RECORDED RESULT
N#Cc1ccc(OCc2cccc(OC3CCN(Cc4nc5ccc(C(=O)O)cc5n4C[C@@H]4CCO4)CC3)n2)c(F)c1 [Compound 55]	2.2

Here's the next entry for you.
So what does the record say about half-life for O=C(O)c1ccc2nc(CN3CCC(Oc4cccc(COc5ccc(Cl)cc5F)n4)CC3)n(C[C@@H]3CCO3)c2c1 [Compound 49] ? 1.34

----------
assay: Pharmacokinetic study in mice; type: in vivo, CD-1 mice; details: mouse, plasma; male CD-1 mice, 5 mg/kg po; read-out: Cmax
PROPERTY LABEL: Cmax (ng/mL)
Please state the figure in ng/mL; there is no need to write the unit.

Some compounds with recorded Cmax:
CHEMICAL STRUCTURE	PROPERTY LABEL	RECORDED RESULT
N#Cc1ccc(OCc2cccc(OC3CCN(Cc4nc5c(F)cc(C(=O)O)cc5n4C[C@@H]4CCO4)CC3)n2)c(F)c1	Cmax	1640
N#Cc1ccc(OCc2cccc(OC3CCN(Cc4nc5ccc(C(=O)O)cc5n4C[C@@H]4CCO4)CC3)n2)c(F)c1	Cmax	483
O=C(O)c1cc(F)c2nc(CN3CCC(Oc4cccc(COc5ccc(Cl)cc5F)n4)CC3)n(C[C@@H]3CCO3)c2c1	Cmax	2190

So what does the record say about Cmax for `O=C(O)c1ccc2nc(CN3CCC(Oc4cccc(COc5ccc(Cl)cc5F)n4)CC3)n(C[C@@H]3CCO3)c2c1` ? 515
